# System: GLP-1 receptor (human, UniProt P43220 24-463)
# Test: cell-based or functional assay
Starred links: 1 amine or outer side, 2 acyl side, 3 side chain; linkers in the order of their positions; H or OH if unused. Non-standard residues stand in square brackets, D forms with d. Groups on a side chain read outwards from the residue. Primed or numbered codes have the meaning given here. No end group written: not given here. *: point of attachment. γGlu = O=C(O)[C@H](CCC(=O)[*:2])N[*:1]; Stearoyl = CCCCCCCCCCCCCCCCCC(=O)*; αMeF = C[C@](N)(Cc1ccccc1)C(=O)O; αMeK = C[C@](N)(CCCCN)C(=O)O; αMeS = C[C@](N)(CO)C(=O)O; PEG2′ = not defined here; Aib = CC(C)(N)C(=O)O
Reported Property: Primary assay EC50 (cAMP), n2 (pM)

Below, each entry is followed by its recorded Primary assay EC50 (cAMP), n2 result.
>>> numeric_readout("HXEGTFTSDVXSYLEGQAAKEFIAWLVKGR (Aib 2; Aib 11; C-terminal amide) [SEQ ID NO 22]")
120
>>> numeric_readout("H[Aib]EGS[αMeF]TSDVSK([PEG2′-PEG2′-PEG2′-Stearoyl])YLEGEAA[Aib]E[αMeF]IA[αMeF]VVEGG-NH2 [SEQ ID NO 63]")
2.55
>>> numeric_readout("H[Aib]EGS[αMeF]TSDVSK([PEG2′-PEG2′-PEG2′-Stearoyl])YLEGEAAEE[αMeF]IA[αMeF]VVEGG-NH2 [SEQ ID NO 62]")
1.8

P. H[Aib]EGSFTSDV[αMeS]S[αMeF]LEGEAAK([PEG2′-PEG2′-PEG2′-Stearoyl])E[αMeF]IA[αMeF]VV[αMeK]GG-NH2 [SEQ ID NO 51]
Q. H[Aib]EGS[αMeF]TSDV[αMeS]S[αMeF]LEGEAAK([PEG2′-PEG2′-γGlu-Stearoyl])E[αMeF]IAWVV[αMeK]GG-NH2 [SEQ ID NO 49]
From the items above, decide which of P and Q has the lower Primary assay EC50 (cAMP), n2 reading. Select an item and report its label.
P
